// values below are reported dH
Target: T1, eIF4E (residues 69–248), purified (Drosophila melanogaster, UniProt P48598-2 69-248)
T1 construct: eIF4E, Drosophila melanogaster, residues 69–248; the methods say the tag was cleaved with HRV3C; also called truncated eIF4E; eIF4E trunc; not shown: His6, N-terminal, cleaved
T1 sequence (looked up): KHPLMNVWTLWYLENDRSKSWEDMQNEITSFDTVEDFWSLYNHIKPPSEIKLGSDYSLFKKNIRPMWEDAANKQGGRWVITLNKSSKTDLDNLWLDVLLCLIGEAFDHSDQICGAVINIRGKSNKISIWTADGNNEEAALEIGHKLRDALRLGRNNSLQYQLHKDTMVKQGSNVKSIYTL
Assay: ITC; VP-ITC, 20 °C; eIF4E (69–248, WT or mutant, 1–20 μM) in the cell, tenfold concentrated GB1-stabilized peptides titrated in; 20 mM Na-phosphate pH 7.0, 150 mM NaCl; one-site binding model
Conditions: both partners purified

| BINDER | dH, kcal/mol |
| --- | --- |
| ALMHRSKESFVMPRIATCDDIELEGRLRRMNIWRT (domain or fragment) [CUP L+NC peptide fused C-terminally to GB1] | -18.5 |
| CUP C+NC peptide fused C-terminally to GB1 (domain or fragment, Drosophila melanogaster, CUP, Drosophila melanogaster, canonical and non-canonical 4E-BMs; source: E. coli BL21 Star (DE3), purified (amylose, HRV3C cleavage, SEC); not shown: MBP, N-terminal, cleaved; GB1, C-terminal, kept) STGIHKPGSLRAPKAVRPTTAPVVSSKPVKSYTRSRLMDIRNGMFNALMHRSKESFVMPRIATCDDIELEGRLRRMNIWRTSDGTRFRTRSTTANLNMNNNNNNECMPAFFKNKNKPNLISDESIIQSQP | -34.5 |
| RYSKVDLLALRYE (domain or fragment) [4E-T C peptide fused C-terminally to GB1] | -18.6 |
| KSYTRSRLMDIRNGMFN (domain or fragment) [CUP C peptide fused C-terminally to GB1] | -16.8 |
| RYSKVDLLALRYEGKSRQRPQCSTRLELQTLGFWKI (domain or fragment) [4E-T C+NC peptide fused C-terminally to GB1] | -22.8 |
| eIF4G peptide (residues 578–650) fused C-terminally to GB1 (domain or fragment, Drosophila melanogaster, UniProt O61380 578-650, looked up, eIF4G, Drosophila melanogaster, residues 578–650 (methods and legends); source: E. coli BL21 Star (DE3), purified (amylose, TEV cleavage, anion exchange, SEC); not shown: MBP, N-terminal, cleaved; GB1, C-terminal, kept) PETTLNDKQDSTDLKVKVSAKISSIINYNEGQWSPNNPSGKKQYDREQLLQLREVKASRIQPEVKNVSILPQP | -18.5 |
| TKLIYERAFMKNLRGSPLSQTPPSNVPSCLLRGT (domain or fragment) [Thor C+NC peptide fused C-terminally to GB1] | -16.8 |
| TKLIYERAFMKNLR (domain or fragment) [Thor C peptide fused C-terminally to GB1] | -12.1 |
